Origin of values: paper PMC3761975

# measurement.target: CYP1A2 (Homo sapiens)
# Sequence (P05177 whole entry): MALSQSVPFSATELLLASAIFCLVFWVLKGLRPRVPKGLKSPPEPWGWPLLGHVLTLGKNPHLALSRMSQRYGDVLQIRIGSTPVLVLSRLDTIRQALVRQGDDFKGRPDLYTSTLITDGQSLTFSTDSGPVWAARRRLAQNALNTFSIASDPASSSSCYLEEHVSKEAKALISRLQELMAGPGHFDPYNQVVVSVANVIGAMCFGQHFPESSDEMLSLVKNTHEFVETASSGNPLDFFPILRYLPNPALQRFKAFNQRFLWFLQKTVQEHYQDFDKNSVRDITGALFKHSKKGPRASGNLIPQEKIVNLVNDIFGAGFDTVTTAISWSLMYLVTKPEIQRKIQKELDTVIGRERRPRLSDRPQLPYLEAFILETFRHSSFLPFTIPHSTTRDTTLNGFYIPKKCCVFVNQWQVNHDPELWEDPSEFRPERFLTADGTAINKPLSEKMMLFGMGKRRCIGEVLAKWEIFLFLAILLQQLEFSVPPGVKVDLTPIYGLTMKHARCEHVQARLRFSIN
# procedure.details: CYP1A2 fluorometric microtiter plate inhibition assay
reported.endpoint: IC50 (µM)

{"smiles.text": "COc1cc(/C=C/C(=O)O[C@H](C(=O)O)[C@](O)(Cc2ccc(O)c(O)c2)C(=O)O)ccc1O", "measurement.target": "CYP1A2 (Homo sapiens)", "IC50 / µM": 7.2}

[a] COc1ccc(/C=C/C(=O)O[C@H](C(=O)O)[C@](O)(Cc2ccc(O)c(O)c2)C(=O)O)cc1O
[b] O=C(/C=C/c1ccc(O)c(O)c1)O[C@H](C(=O)O)[C@](O)(Cc1ccc(O)c(O)c1)C(=O)O
Query :: I need your help: which of the pair a , b has higher IC50? Refer to your chosen item by its label in the answer.
Result :: a
(a: 7.35 µM, b: 1.8 µM)
